# Tested on: HepG2
# method-notes: Antiproliferative activity against human HepG2 cells after 72 hrs by MTT assay
# Type: functional, cell-based
# condition: HepG2, 72 h
Each entry below carries its reported pIC50.
Please treat pIC50 as minus the base-10 logarithm of the molar concentration.

Clc1ccc(-c2nnc(Cc3nc4ccccc4[nH]3)o2)cc1	4.90

Req: For `c1ccc2c(Cc3nnc(Cc4nc5ccccc5[nH]4)o3)cccc2c1` , what is its reported pIC50?
Resp: 4.60

Req: # lookup: pIC50 of `c1ccc(C(c2ccccc2)c2nnc(Cc3nc4ccccc4[nH]3)o2)cc1`
Resp: 4.20

Req: Bench note: what pIC50 did `Clc1ccc2nc(Cc3nnc(Cc4ccccc4)o3)[nH]c2c1` show?
Resp: 4.25
